Tested system: HIV-2 N3 IN (Human immunodeficiency virus type 2 subtype B, UniProt Q89928, A1457T/D1293E/D1331N/F1194Y/I1218V/I1301V/I1428V/K1172N/M1455R/N1185G/N1438H/Q1389K/R1202K/R1392Q/T1348A/T1383A)
Construct: His-tag (pET-15b) (N)
Assay protocol: strand transfer inhibition, IN from clinical isolate N3
Experimental context: IN from RAL-naive patient N3; 200 nM IN; 37°C; Mg2+
Endpoint label: IC50 (nM)
Enter your answer as a number in nM; do not include the unit.

Note to self: IC50 recorded for Cc1nnc(C(=O)NC(C)(C)c2nc(C(=O)NCc3ccc(F)cc3)c(O)c(=O)n2C)o1 [RAL, raltegravir] was 48
